Conditions: human gut metagenome, 24 h, 2 µM; also: call rule not given here
endpoint.name: Bacterial Biotransformation

| compound | Bacterial Biotransformation |
| --- | --- |
| CN(C)C(=O)C(CCN1CCC(O)(c2ccc(Cl)cc2)CC1)(c1ccccc1)c1ccccc1 [LOPERAMIDE] | Compound metabolized |
| CC(=O)OCC(=O)[C@@]1(O)[C@@H](C)C[C@H]2[C@@H]3CCC4=CC(=O)C=C[C@]4(C)[C@@]3(F)[C@@H](O)C[C@@]21C [BETAMETHASONE ACETATE] | Compound metabolized |
| CCOc1ccc(NC(C)=O)cc1 | Compound NOT metabolized |
| CCOC(=O)[C@H](CCc1ccccc1)N[C@H]1CCc2ccccc2N(CC(=O)O)C1=O | Compound metabolized |
| CC(C)(Oc1ccc(CCNC(=O)c2ccc(Cl)cc2)cc1)C(=O)O [BEZAFIBRATE] | Compound metabolized |
| O=C(NCc1ccccc1)OCCO [BURAMATE] | Compound NOT metabolized |
| OC(CCN1CCCCC1)(c1ccccc1)C1CC2C=CC1C2 (stereo not given) | Compound metabolized |
| COc1c(C)c2c(c(O)c1C/C=C(\C)CCC(=O)OCCN1CCOCC1)C(=O)OC2 [MYCOPHENOLATE MOFETIL] | Compound metabolized |
| CC(C)(C#N)c1cc(Cn2cncn2)cc(C(C)(C)C#N)c1 | Compound NOT metabolized |
| CN1CCc2cccc3c2[C@H]1Cc1ccc(O)c(O)c1-3 | Compound NOT metabolized |

**Q:** Read off the recorded Bacterial Biotransformation for `NC12CC3CC(CC(C3)C1)C2`
**A:** Compound NOT metabolized

**Q:** Read off the recorded Bacterial Biotransformation for `O=C(O)CCc1nc(-c2ccccc2)c(-c2ccccc2)o1`
**A:** Compound NOT metabolized

**Q:** Read off the recorded Bacterial Biotransformation for `CCc1nc(N)nc(N)c1-c1ccc(Cl)cc1`
**A:** Compound NOT metabolized

**Q:** Read off the recorded Bacterial Biotransformation for `COc1ccc2c3c1O[C@H]1C[C@@H](O)C=C[C@@]31CCN(C)C2`
**A:** Compound NOT metabolized

**Q:** Read off the recorded Bacterial Biotransformation for `Cc1ccc(-c2cc(C(F)(F)F)nn2-c2ccc(S(N)(=O)=O)cc2)cc1`
**A:** Compound metabolized

**Q:** Read off the recorded Bacterial Biotransformation for `OCCOCCN1CCN(C2=Nc3ccccc3Sc3ccccc32)CC1`
**A:** Compound metabolized

**Q:** Read off the recorded Bacterial Biotransformation for `Cc1nc(-c2ccc(OCC(C)C)c(C#N)c2)sc1C(=O)O`
**A:** Compound metabolized

**Q:** Read off the recorded Bacterial Biotransformation for Cc1ccc(S(=O)(=O)NC(=O)NN2CC3CCCC3C2)cc1 (stereo not given) [GLICLAZIDE]
**A:** Compound metabolized

**Q:** Read off the recorded Bacterial Biotransformation for CCC(COC(=O)c1cc(OC)c(OC)c(OC)c1)(c1ccccc1)N(C)C.O=C(O)/C=C\C(=O)O (stereo not given)
**A:** Compound metabolized

**Q:** Read off the recorded Bacterial Biotransformation for `COc1cc2nc(N3CCN(C(=O)c4ccco4)CC3)nc(N)c2cc1OC`
**A:** Compound metabolized
